Exercise: for every item that follows, state its recorded IC50.
Molecular target: UniProt:O00329
Sequence (O00329 whole entry, looked up): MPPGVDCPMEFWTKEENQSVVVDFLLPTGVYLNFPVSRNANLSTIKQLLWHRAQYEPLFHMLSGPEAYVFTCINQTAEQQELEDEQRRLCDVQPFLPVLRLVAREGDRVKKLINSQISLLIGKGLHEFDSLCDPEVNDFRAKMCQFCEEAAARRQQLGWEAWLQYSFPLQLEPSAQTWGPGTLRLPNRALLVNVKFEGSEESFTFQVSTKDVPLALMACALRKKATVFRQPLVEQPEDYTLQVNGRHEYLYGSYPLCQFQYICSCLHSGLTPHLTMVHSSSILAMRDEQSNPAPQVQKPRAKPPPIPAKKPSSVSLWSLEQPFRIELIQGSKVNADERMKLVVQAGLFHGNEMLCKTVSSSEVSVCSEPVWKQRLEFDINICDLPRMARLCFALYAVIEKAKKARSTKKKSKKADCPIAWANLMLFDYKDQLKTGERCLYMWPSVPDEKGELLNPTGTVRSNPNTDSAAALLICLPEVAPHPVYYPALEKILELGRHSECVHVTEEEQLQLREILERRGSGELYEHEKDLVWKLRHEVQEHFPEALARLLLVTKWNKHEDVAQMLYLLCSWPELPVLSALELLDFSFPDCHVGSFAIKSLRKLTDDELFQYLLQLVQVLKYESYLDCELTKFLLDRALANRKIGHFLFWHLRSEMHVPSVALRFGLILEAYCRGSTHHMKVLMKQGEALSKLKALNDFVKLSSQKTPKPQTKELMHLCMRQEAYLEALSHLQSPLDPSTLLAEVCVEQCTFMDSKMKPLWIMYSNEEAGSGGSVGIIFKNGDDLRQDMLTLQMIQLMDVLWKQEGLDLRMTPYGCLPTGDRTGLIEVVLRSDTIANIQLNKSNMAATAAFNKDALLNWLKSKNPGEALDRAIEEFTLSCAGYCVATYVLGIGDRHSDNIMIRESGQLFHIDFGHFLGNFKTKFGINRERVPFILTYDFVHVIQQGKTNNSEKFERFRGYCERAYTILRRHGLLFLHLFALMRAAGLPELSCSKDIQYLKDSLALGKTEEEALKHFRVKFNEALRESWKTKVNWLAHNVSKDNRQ

Worked cases, answers included:
Sample "CCC(=O)N1CC[C@H](Sc2ncnc3c2nc(-c2cnn(CC)c2C)n3C)C1" — what was its IC50?
11 nM

What do we get for "CCn1c(-c2cnc(C)nc2)nc2c(O[C@H]3CCN(c4ccc5cnoc5c4)C3)ncnc21" ?
11 nM

Hi team, please reply with IC50 for each item in this list.
1. CCC(=O)N1CC[C@H](Oc2ncnc3c2nc(C(F)F)n3CC)C1
2. CCn1ncc(-c2nc3c(OC4CCN(C(=O)c5ccccc5)CC4)ncnc3n2C)c1C
3. CCn1ncc(-c2nc3c(O[C@H]4CCN(C(=O)c5cocn5)C4)ncnc3n2C)c1C
4. CCCn1c(-c2cnc(C)nc2)nc2c(O[C@H]3CCN(C(=O)CC)C3)ncnc21
5. CCn1c(-c2cnc(C)nc2)nc2c(O[C@H]3CCN(C(=O)[C@H]4C[C@H]5CC[C@@H]4C5)C3)ncnc21
6. CCn1c(-c2cnc(N)c(C(F)(F)F)c2)nc2c(O[C@H]3CCN(C(=O)C4CC4)C3)ncnc21

["100 nM", "960 nM", "19 nM", "130 nM", "1.2 nM", "1.1 nM"]

Give IC50 for each of the items listed below.
1. CCn1ncc(-c2nc3c(O[C@H]4CCN(C(=O)c5cncn5C)C4)ncnc3n2C)c1C
2. CCn1c(-c2cnn3c2CCCC3)nc2c(O[C@H]3CCN(C(=O)C4CC4)C3)ncnc21
3. Cn1c(-c2ccc3[nH]ncc3c2)nc2c(O[C@H]3CCN(C(=O)OC(C)(C)C)C3)ncnc21
4. CCn1ncc(-c2nc3c(O[C@H]4CCN(C(=O)OC(C)C)C4)ncnc3n2C)c1C
5. CCn1c(-c2cnc(C)nc2)nc2c(O[C@H]3CCN(C(=O)N4CCC(C)(O)C4)C3)ncnc21 (stereo partly specified)
6. CCn1ncc(-c2nc3c(O[C@H]4CCN(C(=O)C5CCC5)C4)ncnc3n2C)c1C
7. CCC(=O)N1CC[C@H](Oc2ncnc3c2nc(Oc2cc(F)cc(OC)c2)n3C)C1
8. CCn1ncc(-c2nc3c(O[C@H]4CCN(Cc5ccc(N(C)C)cc5)C4)ncnc3n2C)c1C

5.4 nM
< 1 nM
35 nM
8.1 nM
7.3 nM
7 nM
110 nM
3100 nM

Value sought for every listed compound: IC50.
1. CCn1ncc(-c2nc3c(O[C@H]4CCN(C(=O)OCc5ccccc5)C4)ncnc3n2C)c1C
2. CCn1c(-c2cnc(C)nc2)nc2c(O[C@@H]3CCN(C(=O)N4CC(F)(F)C4)C3)ncnc21

14 nM
5.9 nM

For every item below, please supply its IC50.
1. Cc1n[nH]cc1-c1nc2c(O[C@H]3CCN(C(=O)OC(C)(C)C)C3)ncnc2n1C
2. CCC(=O)N1CC[C@H](Oc2ncnc3c2nc(-c2cnn(C(C)(C)C)c2)n3C)C1
3. CCC(=O)N1CCC(Oc2ncnc3c2nc(-c2cnn(CC)c2C)n3C)CC1
4. CCn1ncc(-c2nc3c(O[C@H]4CCN(C(=O)c5nnc(C)o5)C4)ncnc3n2C)c1C
5. Cn1cnc2c(O[C@H]3CCN(C(=O)OC(C)(C)C)C3)ncnc21
6. CCn1ncc(-c2nc3c(O[C@H]4CCN(C(=O)c5cc(C)on5)C4)ncnc3n2C)c1C
7. CCn1ncc(-c2nc3c(O[C@H]4CCN(c5ncnc6ccsc56)C4)ncnc3n2C)c1C

1. 13 nM
2. 4.7 nM
3. 800 nM
4. 31 nM
5. 1400 nM
6. 12 nM
7. 12 nM

// input: 6 compounds below; output: IC50 for each
1. CCn1ncc(-c2nc3c(O[C@H]4CCN(C(=O)NC(C)C)C4)ncnc3n2C)c1C
2. CCn1ncc(-c2nc3c(O[C@H]4CCN(C(=O)c5cc6ncccc6[nH]5)C4)ncnc3n2C)c1C
3. CCn1ncc(-c2nc3c(OC4CCN(C(=O)c5ccccc5)C4)ncnc3n2C)c1C (stereo unspecified)
4. CCn1c(-c2cnc(C)nc2C)nc2c(O[C@H]3CCN(C(=O)C4CC4)C3)ncnc21
5. CCn1ncc(-c2nc3c(O[C@H]4CCN(C(=O)C5CC5)C4)ncnc3n2C)c1C
6. CCC(=O)N1CC[C@H](Oc2ncnc3c2nc(-c2cc(F)cc(NS(C)(=O)=O)c2)n3C)C1

1. 9.2 nM
2. 1900 nM
3. 68 nM
4. 44 nM
5. 6.3 nM
6. 10 nM
